- Tested target: AURKA (MV4-11^AURKA-HiBiT cells) (Homo sapiens, UniProt O14965)
- Construct: expressed in transfected cells; host or cells: MV4-11, lentiviral transduction
- Sequence (O14965 1-403): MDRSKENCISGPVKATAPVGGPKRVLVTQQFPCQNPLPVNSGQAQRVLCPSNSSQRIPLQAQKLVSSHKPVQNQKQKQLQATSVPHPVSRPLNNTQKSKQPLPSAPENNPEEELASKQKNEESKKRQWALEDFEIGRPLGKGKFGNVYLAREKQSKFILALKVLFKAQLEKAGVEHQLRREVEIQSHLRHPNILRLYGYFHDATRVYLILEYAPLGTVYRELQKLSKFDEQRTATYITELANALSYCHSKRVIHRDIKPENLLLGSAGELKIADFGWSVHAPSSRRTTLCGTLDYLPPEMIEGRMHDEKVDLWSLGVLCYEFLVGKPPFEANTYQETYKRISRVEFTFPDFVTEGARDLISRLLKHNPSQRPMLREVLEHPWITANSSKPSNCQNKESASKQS
- Experimental protocol: HiBiT assay, AURKA degradation
- Format: cell-based
- Reported conditions: 6 h treatment, MV4-11^AURKA-HiBiT cells
Parameter: Dmax (maximal degradation) AURKA (%)

[[record]]
compound = "CN1C(=O)CCC(N2C(=O)c3cccc(NC(=O)CCCC(=O)NCC(=O)N4CCN(c5ccc(Nc6nc(NC7CCCCC7)c7nc[nH]c7n6)cc5)CC4)c3C2=O)C1=O (stereo not drawn)"
measured_result = 55.25

[[record]]
compound = "Cc1ncsc1-c1ccc(CNC(=O)[C@@H]2C[C@@H](O)CN2C(=O)[C@@H](NC(=O)CCCC(=O)NCC(=O)N2CCN(c3ccc(Nc4nc(Nc5ccccc5S(=O)(=O)C(C)C)c5nc[nH]c5n4)cc3)CC2)C(C)(C)C)cc1"
measured_result = 57.90

[[record]]
compound = "COc1cc(N2CCN(C(=O)CNC(=O)CCCC(=O)Nc3cccc4c3C(=O)N(C3CCC(=O)NC3=O)C4=O)CC2)ccc1Nc1nc(Nc2ccccc2S(=O)(=O)C(C)C)c2nc[nH]c2n1 (stereo not drawn)"
measured_result = 59.30

